B1: TPR t1 (parent)
chain: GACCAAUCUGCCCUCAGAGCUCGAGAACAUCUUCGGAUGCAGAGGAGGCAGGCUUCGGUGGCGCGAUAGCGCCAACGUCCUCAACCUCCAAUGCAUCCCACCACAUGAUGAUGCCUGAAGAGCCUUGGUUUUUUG

- Variants of: B1
- Protocol summary: polymerase ribozyme fitness, log enrichment relative to wild type (log ratio); higher = more active; in vitro selection for triplet polymerase activity
Returns one of class 1 or class 0; class 1 when polymerase ribozyme fitness (log ratio) is >= -3.

| Var | Label class |
| --- | --- |
| C12A U55G C72U U92G | class 1 |
| C31U A37U | class 0 |
| G44A G71A | class 1 |
| G44C G47C C49U C97A C123U | class 0 |
| G77U G122A U130G | class 1 |
| C22U G39A C64U C99U U130C | class 0 |
| A111C U131A | class 1 |
| U9A C34A C72A C102U C123A G128U | class 1 |
| A2G C12G U21A G71U U78A A121U | class 1 |
| C88U U116C G120C | class 1 |
| A16U C82A | class 1 |
| C72G U130G | class 1 |
| C56G G69A A119U | class 0 |
| A105C U125G | class 0 |
| G51A A84C | class 1 |
| A66U C79U | class 1 |
| C11G G63A A111G | class 1 |
| C4A C13U C101G | class 0 |
| C70U C85G U87A A111G G120A | class 0 |
| U14A G71C G128A | class 0 |
| U9C G42U C53G C56A C73A C88U | class 1 |
| C15U U87A | class 1 |
| C11G G113A U133A | class 1 |
| C34G G120C | class 0 |
| C8G C22G | class 0 |
| C12G U21A G71U U78A A121U | class 1 |
| U9A C70U | class 1 |
| G17U G42U G45A G69C U81G C86A C94U C99A A121C | class 0 |
| C13U C28G C101A C104A | class 0 |
| A50C C53U G57A U96A G117A U132A | class 0 |
| C11U C15G A27G C94G U109C G110A A119U G120A | class 0 |
| C12G C49A G63U C72U C89A | class 0 |
| C8G C53G C56U G93C | class 1 |
| G52A | class 1 |
| G58A G60C G120C | class 0 |
| G42C A50U C82A | class 1 |
| C85A C115U | class 1 |
| C31A A37U G60A A83C | class 0 |
| C12U G45A G48A | class 1 |
| A41C U126G U130G | class 0 |
| C13G | class 1 |
| A37U A100C A103U | class 0 |
| C11G U14A A26C C80A C89U C124U | class 0 |
| G45U C115U | class 1 |
| U55C A90U | class 1 |
| C64A C88G | class 0 |
| C49G C76U U87C | class 1 |
| C40G U59A | class 1 |
| G61C C94U U130A U131G | class 0 |
| U14A A24G G61C C89G A91C C101A U112A G122U U125A | class 0 |
| G17U C20G G52A G113A A119G | class 1 |
| G63C U116A C123U | class 1 |
| C49A G61U U81C G128U | class 0 |
| A27U C62U G117U C123G | class 0 |
| C13U C98A | class 0 |
| A24C C40U G42A C73A A95U C101U G120A U130C | class 0 |
| C73U A91U U96A U112A G120U | class 0 |
| C53A G135U | class 1 |
| A6U C12A G48U U106G | class 1 |
| C12U C13A G60C A121U | class 1 |
| G60A A100U U129A | class 1 |
| C56A G71U U81C A111U C115U | class 0 |
| A46C C73A | class 1 |
| A5U G44A C56A C124A G128U U132G U133C | class 1 |
| U129A G135C | class 1 |
| G39C C56G | class 1 |
| U59C G110A | class 1 |
| A50U U78G A90U | class 0 |
| A24U U32A G48C C70A A74U U81A A121G U125G | class 0 |
| C40U C115A | class 1 |
| A43G G110A | class 0 |
| C79U G110C | class 1 |
| G19C C101A G120U C124A G135C | class 0 |
| C13A A50G G71A | class 1 |
| C11G U59A A68U | class 0 |
| C8G C34G G39C G120U | class 0 |
| C13A A46U A74U | class 0 |
| G39A C72G G113A | class 1 |
| G60C G110U U125G | class 1 |
| U9A G35A | class 0 |
| C99U C115G | class 0 |
| G10A A26G A103U C104A A121C | class 1 |
| G36A U125A | class 1 |
| C62G | class 1 |
| U54G U55A G93C C115G | class 0 |
| U9A A18C G44A C70U G93C | class 0 |
